Source: paper PMC7432809

Assign Antimicrobial Activity (MIC) Ap to each entry below.
# System: Aureobasidium pullulans
# testName: microbe, parasite or virus in culture
# Format: cell-based
# conditionContext: 48 h
Where no end group is shown, it is not given here.
The figure you give is taken to be in µg/mL; do not add the unit.

Ask: Query Antimicrobial Activity (MIC) Ap on Aureobasidium pullulans for GKKWGWWKAK-NH2 [StAMP-6]
Result: 62.5

Ask: Can you check GKKPGWWKAK-NH2 [StAMP-4] next?
Result: 62.5

Ask: Can you check GRRPWWWRAR-NH2 [StAMP-9] next?
Result: 31.3

Ask: Can you check GKKPWWWKAK-NH2 [StAMP-7] next?
Result: 15.6

Ask: Can you check GKKPWGWKAK-NH2 [StAMP-3] next?
Result: 62.5

Ask: Can you check GKKWGGWKAK-NH2 [StAMP-2] next?
Result: 62.5

Ask: Can you check GRRPLLLRAR-NH2 [StAMP-11] next?
Result: 250

Ask: Can you check GKKWWGWKAK-NH2 [StAMP-5] next?
Result: 31.3

Ask: Can you check GKKWWWWKAK-NH2 [StAMP-8] next?
Result: 7.8

Ask: Can you check GRRWWWWRAR-NH2 [StAMP-10] next?
Result: 62.5
